Where do the numbers come from? From patent US9527849B2.

target: UniProt:Q9HCR9
Sequence (Q9HCR9 whole entry): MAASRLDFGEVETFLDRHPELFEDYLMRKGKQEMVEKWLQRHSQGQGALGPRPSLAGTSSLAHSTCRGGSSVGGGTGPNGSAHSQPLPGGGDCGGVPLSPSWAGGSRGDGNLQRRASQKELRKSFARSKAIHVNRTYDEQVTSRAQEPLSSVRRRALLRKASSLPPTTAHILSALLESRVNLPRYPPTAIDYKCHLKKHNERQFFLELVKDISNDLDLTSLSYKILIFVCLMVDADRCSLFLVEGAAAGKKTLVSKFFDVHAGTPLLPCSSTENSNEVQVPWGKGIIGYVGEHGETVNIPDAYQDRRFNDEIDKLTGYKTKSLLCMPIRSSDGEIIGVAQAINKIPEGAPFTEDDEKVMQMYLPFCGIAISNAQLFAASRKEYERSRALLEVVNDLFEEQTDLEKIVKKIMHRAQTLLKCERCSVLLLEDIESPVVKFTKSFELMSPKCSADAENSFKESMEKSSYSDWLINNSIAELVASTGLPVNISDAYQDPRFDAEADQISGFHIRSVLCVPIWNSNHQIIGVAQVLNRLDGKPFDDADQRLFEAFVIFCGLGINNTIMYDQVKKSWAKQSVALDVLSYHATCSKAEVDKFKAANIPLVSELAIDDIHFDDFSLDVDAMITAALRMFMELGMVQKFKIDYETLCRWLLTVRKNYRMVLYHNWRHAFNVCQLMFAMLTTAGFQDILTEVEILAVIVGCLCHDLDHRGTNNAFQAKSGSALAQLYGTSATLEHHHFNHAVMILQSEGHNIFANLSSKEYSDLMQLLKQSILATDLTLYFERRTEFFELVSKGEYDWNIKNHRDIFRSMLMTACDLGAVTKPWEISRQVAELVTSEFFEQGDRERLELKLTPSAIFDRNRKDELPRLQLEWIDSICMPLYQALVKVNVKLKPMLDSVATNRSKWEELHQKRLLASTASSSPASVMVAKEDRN
RECORDED METRIC: IC50 (µM)
Your answer is read as µM, so omit the unit and give the number.

Indicate the recorded IC50 value for this compound: CCCOc1ccc(S(=O)(=O)N(C)CCN2CCCC2)cc1-c1nc2c(CCC)nn(C)c2c(=O)[nH]1 [Maleate of compound Z]
6.09

====

molecular target: PDE7; assay: In vitro activity against PDE isoenzyme; conditions: PDE7
RECORDED METRIC: pIC50
To interpret pIC50, take it as minus log10 of a concentration measured in moles per litre.

Indicate the recorded pIC50 value for this molecule: CCCc1nn(C)c2c(=O)[nH]c(-c3cc(S(=O)(=O)N4CCN(C)CC4)ccc3OCC)nc12 [Sildenafil, reference compound]
4.33
